// values below are reported Stability in detergent measured by native DSF, 0.1% LMNG
- method-notes: Stability of mini-G proteins in detergent by native DSF
- Assay type: physicochemical
- condition-notes: 2 mg/ml, onset of scattering
Please answer using a numeric value trailed by its unit.

A selection of reference data follows.
[
  {
    "molecule": "Mini-Gs/i143: mini-Gs with 9 α5 helix mutations changing coupling specificity to Gi1; SEQ ID NO:111 (protein, Mini-Gs/i143) MGHHHHHHENLYFQGIEKQLQKDKQVYRATHRLLLLGADNSGKSTIVKQMRILHGGSGGSGGTSGIFETKFQVDKVNFHMFDVGGQRDERRKWIQCFNDVTAIIFVVDSSDYNRLQEALNDFKSIWNNRWLRTISVILFLNKQDLLAEKVLAGKSKIEDYFPEFARYTTPEDATPEPGEDPRVTRAKYFIRDEFLRISTASGDGRHYCYPHFTCAVDTENARRIFNDVTDIIIKMNLRDCGLF",
    "endpoint-result": "41.1 ± 0.1 °C"
  },
  {
    "molecule": "Mini-Go112: mini-G protein of Go1, construct 12; SEQ ID NO:113 (protein, Mini-Go112) MGHHHHHHENLYFQGIEKNLKEDGISAAKDVKLLLLGADNSGKSTIVKQMKIIHGGSGGSGGTTGIVETHFTFKNLHFRLFDVGGQRSERKKWIHCFEDVTAIIFCVDLSDYNRMHESLMDFDSICNNKFFIDTSIILFLNKKDLFGEKIKKSPLTICFPEYTGPNTYEDAAAYIQAQFESKNRSPNKEIYCHMTCATDTNNAQVIFDAVTDIIIANNLRGCGLY",
    "endpoint-result": "40.7 ± 0.1 °C"
  },
  {
    "molecule": "Mini Gs393 (protein, N-terminal His tag, TEV site; MINI GS393) MGHHHHHHENLYFQGIEKQLQKDKQVYRATHRLLLLGADNSGKSTIVKQMRILHGGSGGSGGTSGIFETKFQVDKVNFHMFDVGGQRDERRKWIQCFNDVTAIIFVVDSSDYNRLQEALNDFKSIWNNRWLRTISVILFLNKQDLLAEKVLAGKSKIEDYFPEFARYTTPEDATPEPGEDPRVTRAKYFIRDEFLRISTASGDGRHYCYPHFTCAVDTENARRIFNDCRDIIQRMHLRQYELL",
    "endpoint-result": "44.9 ± 0.2 °C"
  },
  {
    "molecule": "Mini-G128: mini-G protein of G12, construct 8; SEQ ID NO:114 (protein, Mini-G128) MGHHHHHHENLYFQGIDALLARERRAVRRLVKILLLGADNSGKSTFLKQMRIIHGGSGGSGGTKGIVEHDFVIKKIPFKMVDVGGQRSQRQKWFQCFDGITSILFMVDSSDYNRLVESMNDFETIVNNKLFFNVSIILFLNKMDLLVEKVKTVSIKKHFPDFRGDPHRLEDVQRYLVQCFDRKRRNRSKPLFHHFTTAIDTENARFIFHAVKDTILQENLKDIMLQ",
    "endpoint-result": "46.0 ± 0.1 °C"
  }
]

Request: Looking for the measured Stability in detergent measured by native DSF, 0.1% LMNG of Mini-Gs/q70: mini-Gs with R380K Q384L R385Q H387N Q390E E392N L394V (protein) GIEKQLQKDKQVYRATHRLLLLGADNSGKSTIVKQMRILHGGSGGSGGTSGIFETKFQVDKVNFHMFDVGGQRDERRKWIQCFNDVTAIIFVVDSSDYNRLQEALNDFKSIWNNRWLRTISVILFLNKQDLLAEKVLAGKSKIEDYFPEFARYTTPEDATPEPGEDPRVTRAKYFIRDEFLRISTASGDGRHYCYPHFTCAVDTENARRIFNDCKDIILQMNLREYNLV , can you help?
Response: 44.2 ± 0.2 °C

Sourced from patent US11339383B2
